Molecular target: α2β2γ1 GABAA receptor subtype (Homo sapiens (Human), UniProt P47869+Q8N1C3)
Assay: Two-electrode voltage clamp electrophysiology in Xenopus oocytes expressing GABAA receptors (modulation of GABA EC20 current)
Type: cell-based
Conditions: % modulation of GABA EC20 = 100*(Fold increase-1); α2β2γ1 oocytes; compound at approx. 30-fold Ki
Method: Xenopus laevis oocytes at maturation stages V-VI were used for the expression of cloned mRNA encoding GABAA receptor subunits. Oocytes ready for RNA micro-injection were bought from Ecocyte, Castrop-Rauxel, Germany and stored in modified Barth's medium (composition in mM: NaCl 88, KCl 1, NaHCO3 2.4, HEPES 10, MgSO4 0.82, CaNO3 0.33, CaCl2 0.33, pH=7.5) at 20° C. until the experiment. […]
The reader will find reported Efficacy (GABA)% values listed item by item below.
Value expressed in %; do not type the unit.

Examples from the recorded data:
[[record]]
compound = "C[C@@H]1N=C(c2ncccc2F)c2c(ccc(Cl)c2Cl)-n2nc(C(=O)N3CC[C@@H](F)C3)nc21"
unit_text = "%"
experimental_value = 98

[[record]]
compound = "C[C@@H]1N=C(c2c(F)cccc2F)c2c(ccc(Cl)c2Cl)-n2nc(C#N)nc21"
unit_text = "%"
experimental_value = 73

[[record]]
compound = "C[C@@H]1N=C(c2c(F)cccc2F)c2c(ccc(Cl)c2Cl)-n2nc(C(=O)NCCO)nc21"
unit_text = "%"
experimental_value = 80

[[record]]
compound = "O=C(NC1COC1)c1nc2n(n1)-c1ccc(Cl)c(Cl)c1C(c1c(F)cccc1F)=NC2"
unit_text = "%"
experimental_value = 70

[[record]]
compound = "C[C@@H]1N=C(c2c(F)cccc2F)c2c(ccc(C(F)(F)F)c2Cl)-n2nc(NC(=O)NC3CC3)nc21"
unit_text = "%"
experimental_value = 38


Any idea what Efficacy (GABA)% was measured for COC1CN(C(=O)c2nc3n(n2)-c2ccc(Cl)c(Cl)c2C(c2c(F)cccc2F)=N[C@H]3C)C1 ?
52

Any idea what Efficacy (GABA)% was measured for C[C@@H]1N=C(c2c(F)cccc2F)c2c(ccc(Cl)c2Cl)-n2nc(S(N)(=O)=O)nc21 ?
97

Any idea what Efficacy (GABA)% was measured for C[C@@H]1N=C(c2c(F)cccc2F)c2c(ccc(C(F)(F)F)c2Cl)-n2nc(C(=O)NCCF)nc21 ?
90

Any idea what Efficacy (GABA)% was measured for C[C@@H]1N=C(c2c(F)cccc2F)c2c(ccc(C(F)(F)F)c2Cl)-n2nc(NC(=O)N3C4CC3CS(=O)(=O)C4)nc21 (single isomer, unassigned) ?
101

Any idea what Efficacy (GABA)% was measured for C[C@@H]1N=C(c2ncccc2F)c2c(ccc(C(F)(F)F)c2Cl)-n2nc(NC(=O)NC3CC3)nc21 ?
110

Any idea what Efficacy (GABA)% was measured for CNC(=O)c1cn2c(n1)CN=C(c1ncccc1F)c1c-2ccc(Cl)c1Cl ?
125

Any idea what Efficacy (GABA)% was measured for COC1CN(C(=O)Nc2nc3n(n2)-c2ccc(C(F)(F)F)c(Cl)c2C(c2c(F)cccc2F)=N[C@H]3C)C1 ?
112

Any idea what Efficacy (GABA)% was measured for C[C@H](O)CNC(=O)c1nc2n(n1)-c1ccc(C(F)(F)F)c(Cl)c1C(c1c(F)cccc1F)=N[C@H]2C ?
126

Any idea what Efficacy (GABA)% was measured for C[C@@H]1N=C(c2ncccc2F)c2c(ccc(Cl)c2Cl)-n2nc(C(=O)N3CC(O)C3)nc21 ?
133

Any idea what Efficacy (GABA)% was measured for C[C@@H]1N=C(c2c(F)cccc2F)c2c(ccc(C(F)(F)F)c2Cl)-n2nc(C(=O)NCCO)nc21 ?
103

Any idea what Efficacy (GABA)% was measured for C[C@@H]1N=C(c2c(F)cccc2F)c2c(ccc(C(F)(F)F)c2Cl)-n2nc(C(=O)N3CCC3)nc21 ?
75

Any idea what Efficacy (GABA)% was measured for CC1CN(C(=O)c2nc3n(n2)-c2ccc(C(F)(F)F)c(Cl)c2C(c2ncccc2F)=N[C@H]3C)C1 ?
118

Any idea what Efficacy (GABA)% was measured for CC1CN(C(=O)c2nc3n(n2)-c2ccc(Cl)c(Cl)c2C(c2ncccc2F)=N[C@H]3C)C1 ?
84

Any idea what Efficacy (GABA)% was measured for C[C@@H]1N=C(c2c(F)cccc2F)c2c(ccc(Cl)c2Cl)-n2nc(C(N)=O)nc21 ?
67

Any idea what Efficacy (GABA)% was measured for C[C@@H]1N=C(c2ncccc2F)c2c(ccc(C(F)(F)F)c2Cl)-n2nc(N3CCOC3=O)nc21 ?
113

Any idea what Efficacy (GABA)% was measured for C[C@@H]1N=C(c2c(F)cccc2F)c2c(ccc(Cl)c2Cl)-n2nc(C(=O)NC3COC3)nc21 ?
58

====

The reader will find reported pKi values listed item by item below.
Target: human GABAA α2β2γ1 receptor (Homo sapiens (Human), UniProt P47869+Q8N1C3)
Test: Radioligand binding assay for γ1-containing GABAA subtypes, [3H]RO7239181 competition (α2β2γ1)
Details: Ki h-GABAA α2β2γ1, displacement of [3H]RO7239181, membranes of HEK293F cells expressing human receptors, means of two determinations
Just the number, please; pKi means minus log10 of the concentration in mol/L.

Examples from the recorded data:
[[record]]
compound = "C[C@@H]1N=C(c2c(F)cccc2F)c2c(ccc(C(F)(F)F)c2Cl)-n2nc(NC(=O)NC3CC3)nc21 [Example 126]"
tested_target = "human GABAA α2β2γ1 receptor (Homo sapiens (Human), UniProt P47869+Q8N1C3)"
readout_name = "pKi"
experimental_value = 7.99

[[record]]
compound = "C[C@@H]1N=C(c2ncccc2F)c2c(ccc(C(F)(F)F)c2Cl)-n2nc(N3CCOC3=O)nc21 [Example 147]"
tested_target = "human GABAA α2β2γ1 receptor (Homo sapiens (Human), UniProt P47869+Q8N1C3)"
readout_name = "pKi"
experimental_value = 7.31

[[record]]
compound = "C[C@@H]1N=C(c2c(F)cccc2F)c2c(ccc(Cl)c2Cl)-n2nc(C(=O)N3CC(F)C3)nc21 [Example 40]"
tested_target = "human GABAA α2β2γ1 receptor (Homo sapiens (Human), UniProt P47869+Q8N1C3)"
readout_name = "pKi"
experimental_value = 8.13

[[record]]
compound = "C[C@@H]1N=C(c2c(F)cccc2F)c2c(ccc(C(F)(F)F)c2Cl)-n2ccnc21 [Example 150]"
tested_target = "human GABAA α2β2γ1 receptor (Homo sapiens (Human), UniProt P47869+Q8N1C3)"
readout_name = "pKi"
experimental_value = 8.14


Any idea what pKi was measured for C[C@@H]1N=C(c2c(F)cccc2F)c2c(ccc(Cl)c2Cl)-n2cc(C(=O)N3CC(C#N)C3)nc21 [Example 71] ?
7.92

Any idea what pKi was measured for COC1CN(C(=O)Nc2nc3n(n2)-c2ccc(C(F)(F)F)c(Cl)c2C(c2c(F)cccc2F)=N[C@H]3C)C1 [Example 127] ?
7.31

====

Target: human GABAA α2β2γ1 receptor (Homo sapiens (Human), UniProt P47869+Q8N1C3)
Assay: Radioligand binding assay for γ1-containing GABAA subtypes, [3H]RO7239181 competition (α2β2γ1)
Conditions: Ki h-GABAA α2β2γ1, displacement of [3H]RO7239181, membranes of HEK293F cells expressing human receptors, means of two determinations
READOUT_NAME: pKi
Just the number, please; pKi means minus log10 of the concentration in mol/L.

Examples from the recorded data:
[[record]]
compound = "C[C@@H]1N=C(c2ncccc2F)c2c(ccc(Cl)c2Cl)-n2nc(C(=O)N3CC4(CCCCO4)C3)nc21 [Example 101]"
readout_name = "pKi"
experimental_value = 7.42

[[record]]
compound = "C[C@@H]1N=C(c2c(F)cccc2F)c2c(ccc(Cl)c2Cl)-n2nc(C(=O)N3CC4(CCCO4)C3)nc21 [Example 108]"
readout_name = "pKi"
experimental_value = 8.41


Turning now to a further compound:
Any idea what pKi was measured for C[C@@H]1N=C(c2c(F)cccc2F)c2c(ccc(Cl)c2Cl)-n2nc(C(=O)N3CC4(CCOCC4)C3)nc21 [Example 99] ?
8.35

====

The reader will find reported pKi values listed item by item below.
Biological target: human GABAA α5β2γ1 receptor (Homo sapiens (Human), UniProt P31644+Q8N1C3)
Assay: Radioligand binding assay for γ1-containing GABAA subtypes, [3H]RO7239181 competition (α5β2γ1)
Just the number, please; pKi means minus log10 of the concentration in mol/L.

[[record]]
compound_structure = "Fc1cccc(F)c1C1=NCc2nc(C(F)F)cn2-c2ccc(Br)c(Cl)c21"
experimental_value = 8.89

[[record]]
compound_structure = "C[C@@H]1N=C(c2c(F)cccc2F)c2c(ccc(C(F)(F)F)c2Cl)-n2cc(CO)nc21"
experimental_value = 8.80


Turning now to a further compound:
Any idea what pKi was measured for Cc1nc2n(n1)-c1ccc(C(F)(F)F)c(Cl)c1C(c1c(F)cccc1F)=N[C@H]2C ?
9.16
